System: SK-OV-3 ovarian
Test: NCI-60 one-dose screen, 48 h (100 = growth as untreated, 0 = no growth, -100 = all killed)
Details: 10 µM unless noted
This is part of a sample that, as a whole, favours compounds with a hit. Of some 83,000 tested, about 20% had one in any assay.
This listing pairs compounds with measured growth.
Quick note: give the figure in %, leave out the unit.

CCOC(=O)c1ccccc1C(=O)OCC; 113
O=C(O)CNCP(=O)(O)O; 113

// query growth value for entry O=C(CBr)OCCOC(=O)CBr
133

Here is the next compound: C=C[Se]CC(=O)/C=C/c1ccccc1
53

###

Test system: MDA-MB-231 breast
Assay: NCI-60 one-dose screen, 48 h
Details: 10 µM unless noted
This is part of a sample that, as a whole, favours compounds with a hit. Of some 83,000 tested, about 20% had one in any assay. Calls of active or inactive are those of the source. Rule for the calls: active = growth percent below 10; inactive = the rest.
Pick one: active, inactive

C[C@@]12CCCc3coc(c31)C(=O)c1cc3c(cc12)C(=O)C1=C(NCCS1(=O)=O)C3=O; active
Cc1c(C)c(N)c(C)c(C)c1N; inactive
C/C(=C(\c1ccc(OCCN2CCOCC2)cc1)c1ccc(OC(=O)Cc2ccccc2)cc1)c1ccc(Cl)cc1; inactive

Called result for O=C(CBr)OCCOC(=O)CBr
inactive

Here is the next compound: C[N+]1(C)CCCC1c1cccnc1 (centres undefined)
inactive

Reference source for all entries: PubChem BioAssay (NCI)
